Target: Huntingtin (Homo sapiens) (UniProt P42858)
Sequence (P42858 whole entry, looked up, stated change not applied): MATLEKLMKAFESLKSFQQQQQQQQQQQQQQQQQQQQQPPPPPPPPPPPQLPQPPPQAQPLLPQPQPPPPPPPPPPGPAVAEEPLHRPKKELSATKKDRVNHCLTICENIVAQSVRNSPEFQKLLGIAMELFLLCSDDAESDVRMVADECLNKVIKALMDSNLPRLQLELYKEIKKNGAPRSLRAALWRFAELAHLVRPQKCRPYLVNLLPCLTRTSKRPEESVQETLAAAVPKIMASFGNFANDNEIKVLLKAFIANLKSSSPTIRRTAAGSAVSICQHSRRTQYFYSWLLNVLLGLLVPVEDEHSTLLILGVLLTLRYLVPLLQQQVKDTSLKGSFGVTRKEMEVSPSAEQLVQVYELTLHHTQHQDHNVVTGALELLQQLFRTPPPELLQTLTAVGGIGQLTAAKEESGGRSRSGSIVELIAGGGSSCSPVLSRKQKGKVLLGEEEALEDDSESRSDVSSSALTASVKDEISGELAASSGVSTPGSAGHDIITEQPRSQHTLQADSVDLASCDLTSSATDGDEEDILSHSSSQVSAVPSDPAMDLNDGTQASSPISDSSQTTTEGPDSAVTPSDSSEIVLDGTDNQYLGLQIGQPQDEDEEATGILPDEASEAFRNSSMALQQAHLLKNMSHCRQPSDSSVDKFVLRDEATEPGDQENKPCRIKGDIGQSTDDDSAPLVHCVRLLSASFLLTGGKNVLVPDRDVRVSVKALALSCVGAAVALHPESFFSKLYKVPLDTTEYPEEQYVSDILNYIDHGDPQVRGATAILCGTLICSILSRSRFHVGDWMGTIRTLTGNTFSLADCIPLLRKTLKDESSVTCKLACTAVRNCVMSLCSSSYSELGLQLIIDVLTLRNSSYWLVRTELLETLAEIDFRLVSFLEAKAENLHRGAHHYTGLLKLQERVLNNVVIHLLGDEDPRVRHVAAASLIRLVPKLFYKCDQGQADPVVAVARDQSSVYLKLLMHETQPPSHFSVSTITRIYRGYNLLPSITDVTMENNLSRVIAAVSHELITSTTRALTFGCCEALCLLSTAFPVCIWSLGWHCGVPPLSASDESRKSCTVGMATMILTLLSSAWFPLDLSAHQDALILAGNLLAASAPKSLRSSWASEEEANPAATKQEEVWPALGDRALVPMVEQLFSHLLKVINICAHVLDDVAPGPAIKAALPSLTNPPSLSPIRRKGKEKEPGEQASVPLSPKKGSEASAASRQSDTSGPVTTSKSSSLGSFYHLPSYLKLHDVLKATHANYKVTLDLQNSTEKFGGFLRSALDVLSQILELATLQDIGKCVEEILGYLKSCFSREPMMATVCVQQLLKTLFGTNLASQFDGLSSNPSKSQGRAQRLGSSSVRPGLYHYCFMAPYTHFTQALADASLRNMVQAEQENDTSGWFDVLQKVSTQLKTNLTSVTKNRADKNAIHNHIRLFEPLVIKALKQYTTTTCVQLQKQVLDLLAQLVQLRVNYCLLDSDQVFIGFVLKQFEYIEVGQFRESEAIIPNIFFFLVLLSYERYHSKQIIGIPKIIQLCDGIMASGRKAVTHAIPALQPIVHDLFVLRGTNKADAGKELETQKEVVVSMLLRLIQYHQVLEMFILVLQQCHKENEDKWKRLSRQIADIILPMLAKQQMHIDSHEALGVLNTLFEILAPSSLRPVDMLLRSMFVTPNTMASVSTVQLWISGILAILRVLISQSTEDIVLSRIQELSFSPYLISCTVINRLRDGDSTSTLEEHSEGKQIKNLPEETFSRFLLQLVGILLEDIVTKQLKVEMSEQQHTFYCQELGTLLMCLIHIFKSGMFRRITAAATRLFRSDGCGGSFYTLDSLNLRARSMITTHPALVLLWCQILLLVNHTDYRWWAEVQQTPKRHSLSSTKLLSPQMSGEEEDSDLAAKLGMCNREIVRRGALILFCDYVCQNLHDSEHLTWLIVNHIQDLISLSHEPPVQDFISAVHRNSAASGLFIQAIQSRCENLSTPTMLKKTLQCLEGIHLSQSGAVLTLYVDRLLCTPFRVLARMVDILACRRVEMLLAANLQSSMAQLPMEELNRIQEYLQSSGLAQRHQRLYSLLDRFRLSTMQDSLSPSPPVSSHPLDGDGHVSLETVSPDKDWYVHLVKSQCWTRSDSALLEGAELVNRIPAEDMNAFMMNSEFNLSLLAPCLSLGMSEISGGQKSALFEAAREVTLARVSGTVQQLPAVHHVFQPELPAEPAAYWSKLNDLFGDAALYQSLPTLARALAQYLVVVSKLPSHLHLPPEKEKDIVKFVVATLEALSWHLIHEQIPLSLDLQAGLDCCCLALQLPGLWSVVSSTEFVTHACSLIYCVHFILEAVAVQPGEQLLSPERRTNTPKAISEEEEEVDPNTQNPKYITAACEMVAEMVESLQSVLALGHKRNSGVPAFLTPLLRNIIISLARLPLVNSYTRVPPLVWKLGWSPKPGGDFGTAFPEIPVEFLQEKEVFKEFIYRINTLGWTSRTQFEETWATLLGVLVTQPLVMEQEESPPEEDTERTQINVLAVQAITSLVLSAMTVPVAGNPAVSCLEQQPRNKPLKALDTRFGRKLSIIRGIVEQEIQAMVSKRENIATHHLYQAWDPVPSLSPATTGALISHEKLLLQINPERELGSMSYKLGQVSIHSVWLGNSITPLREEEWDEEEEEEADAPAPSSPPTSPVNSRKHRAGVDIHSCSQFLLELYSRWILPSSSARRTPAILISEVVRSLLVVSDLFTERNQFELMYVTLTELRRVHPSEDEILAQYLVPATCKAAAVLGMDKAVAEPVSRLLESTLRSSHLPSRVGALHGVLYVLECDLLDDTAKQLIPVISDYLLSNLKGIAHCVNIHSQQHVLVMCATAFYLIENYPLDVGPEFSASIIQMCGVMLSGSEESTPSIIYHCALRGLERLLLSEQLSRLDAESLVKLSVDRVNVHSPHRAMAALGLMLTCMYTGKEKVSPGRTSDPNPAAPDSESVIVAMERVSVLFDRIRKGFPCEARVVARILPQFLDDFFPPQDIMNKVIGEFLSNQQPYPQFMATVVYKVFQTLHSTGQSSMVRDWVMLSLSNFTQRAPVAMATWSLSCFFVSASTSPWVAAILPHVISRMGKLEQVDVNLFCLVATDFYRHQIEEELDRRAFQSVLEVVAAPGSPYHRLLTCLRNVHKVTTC
Assay: mutant huntingtin-calmodulin interaction inhibitors – biochemical, AlphaScreen, primary screen (AID 1671202);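 further: 0% = both proteins with DMSO and 100% = one protein alone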
Conditions: AlphaScreen His-mHTT/GST-CaM binding, luminescence; at 15 µM, stronger effect = higher value
The whole screen tested about 190,000 compounds, of which about 6,900 (3.6%) were called active. Only a selection was taken, and actives are over-represented in it overall.
value_kind: inhibition (%)

compound="O=C(NC(n1cnc2c(Cl)ncnc21)C(Cl)(Cl)Cl)c1ccccc1 (centres undefined)" meas_value=-3
compound="Cn1nccc1C(=O)N1CCCC1c1cccc(F)c1 (centres undefined)" meas_value=-3.94
compound=CNC(=O)C[C@H]1C(=O)N(c2ccc(OC)cc2)C[C@@H]1Cc1ccccc1 meas_value=-3.3
compound=COc1ccc(CN2CCN(Cc3cc(OC)c(OC)c(OC)c3)CC2)cc1 meas_value=2.6
compound="COc1ccc(Br)cc1C=C(NC(=O)c1cc(OC)c(OC)c(OC)c1)C(=O)N1CC2CC(C1)c1cccc(=O)n1C2 (centres undefined)" meas_value=73.4
compound=Cn1nc(COc2ccccc2)c2c1CCN(C(=O)Nc1ccc(F)cc1F)C2 meas_value=22.3
compound=Cc1ccc2nc(/C(C#N)=C/c3cc(Cl)cc4c3OCOC4)[nH]c2c1 meas_value=-7
compound=Cc1cc(C(=O)N2CC(C(=O)N3CCN(c4ccc(Cl)c(Cl)c4)CC3)C2)no1 meas_value=66.7
compound="Cc1ccc(CNC(=O)N2CCCC(C)(C(=O)NCc3ccccc3)C2)cc1 (centres undefined)" meas_value=0.08
compound="COc1ccc(C2=NN3C(C2)c2ccccc2OC3c2cccc([N+](=O)[O-])c2)cc1 (centres undefined)" meas_value=10
compound=COc1cc(OC)c(OC)cc1CN1CCN(Cc2ccc3c(c2)OCO3)CC1 meas_value=2.4
compound="COc1ccc(C2CC(c3cccs3)=NN2c2ccccc2)cc1 (centres undefined)" meas_value=-183
compound=CN(C)c1ncccc1NC(=O)c1cccc(C#N)c1 meas_value=0
compound="COc1cc(OC)c2ccc(=O)oc2c1C(CCN1CCN(c2ccccc2)CC1)c1ccc2c(c1)OCO2 (centres undefined)" meas_value=73.2
compound=Brc1ccc(CSc2cccc3cccnc23)cc1 meas_value=54
compound="Cc1cc(C)c(S(=O)(=O)N2CCCC2C(=O)NCCc2csc(C)n2)c(C)c1 (centres undefined)" meas_value=-2.4
compound=O=C(Cc1ccccc1F)N1CCOc2ccccc2C1 meas_value=0.06
compound="CN(Cc1ccccc1)C(=O)c1ccc(N2CC3CC(C2)c2cccc(=O)n2C3)c([N+](=O)[O-])c1 (centres undefined)" meas_value=9
compound=c1ccc2c(c1)CC1(CCCCC1)N=C2N1CCOCC1 meas_value=-5.33
compound=Cc1cc2c(N3CCC(C(=O)Nc4cccc(F)c4)CC3)nccc2s1 meas_value=45.2
compound=CC1CCN(c2ccc([N+](=O)[O-])c(SCCO)c2)CC1 meas_value=24
compound="CC(C)n1c(C2CCN(S(=O)(=O)Cc3ccc(F)cc3Cl)C2)nc2ccncc21 (centres undefined)" meas_value=9.49
compound="O=S1(=O)CC(N2CCN(Cc3ccccc3F)CC2)CN1Cc1cn(Cc2cccc(C(F)(F)F)c2)nn1 (centres undefined)" meas_value=6.8
compound=C=C(C)c1nc2ccc(Br)cc2c(=O)o1 meas_value=-3
compound=Cn1nc(COc2ccc(F)cc2)c2c1CCN(C(=O)Nc1ccc(F)cc1)C2 meas_value=80
compound="COc1cc(C(CCN2CCN(c3ccccc3)CC2)c2c(OC)cc(OC)c3ccc(=O)oc23)cc(OC)c1OC (centres undefined)" meas_value=89.6
compound="COc1ccc(C(CC(=O)N2CCN(c3ccccc3)CC2)c2c(O)cc(OC)cc2OC)cc1 (centres undefined)" meas_value=34.4
compound="Cc1ccc(S(=O)(=O)N2CCCC(C)(C(=O)NCc3ccccc3C)C2)cc1 (centres undefined)" meas_value=13
compound=COc1ccc(CN2CCc3nc(N4CCCC4)ncc3C2)cc1OC meas_value=42.3

====

Biological target: Huntingtin (Homo sapiens) (UniProt P42858)
Assay: mutant huntingtin-calmodulin interaction inhibitors – biochemical, AlphaScreen, primary screen (AID 1671202);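 further: 0% = both proteins with DMSO and 100% = one protein alone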
Settings: AlphaScreen His-mHTT/GST-CaM binding, luminescence; at 15 µM, stronger effect = higher value
Among all 190,000 compounds or so, about 6,900 (3.6%) were called active. The sample holds actives, similar compounds and a random draw of the others, so the mix is not that of the screen.
Rule: inhibition under 50% gives class 0, otherwise class 1.

molecule=O=C(Nc1cccc(NC(=O)c2ccccc2[N+](=O)[O-])c1)c1ccccc1Cl class_name="class 0"
molecule=O=C(c1cccc2[nH]cc(CN3CCCC3)c12)N1CCN(c2ccccc2)CC1 class_name="class 1"
molecule=CCN1/C(=C2\N=C(c3ccccc3)OC2=O)C=Cc2ccccc21 class_name="class 0"
molecule=O=C(Nc1cccn2cnnc12)c1ccccn1 class_name="class 1"
molecule=O=C(Nc1ccc2c(c1)OCO2)N1CCOc2ccccc21 class_name="class 0"
molecule=COc1cc2c(-c3ccccc3)c(C)oc2cc1CN1CCN(c2ncccn2)CC1 class_name="class 1"
molecule="Cc1cc(C(=O)NCC(c2cn(C)c3ccccc23)N(C)C)no1 (stereo not drawn)" class_name="class 0"
molecule=Cc1nc(-c2ccc(C(=O)Nc3ccc(C)c(F)c3)cc2)cs1 class_name="class 0"
molecule="O=C(C1CCCN(Cc2c[nH]c3ccccc23)C1)N1CCCCCC1 (stereo not drawn)" class_name="class 0"
molecule=CC(C)n1cnc2cc(CNC(=O)c3ccccn3)ccc21 class_name="class 0"
molecule="Cn1nccc1C(=O)N1CCCC(c2n[nH]c(C3CC3)n2)C1 (stereo not drawn)" class_name="class 0"
molecule=COc1cc(CN2CCN(Cc3cc(OC)c(OC)cc3OC)CC2)cc(OC)c1 class_name="class 0"
molecule=Cc1nc(N)sc1-c1csc(Nc2cccc([N+](=O)[O-])c2)n1 class_name="class 1"
molecule="COc1ccc(N2CCN(CC(O)COC3CC4CCC3(C)C4(C)C)CC2)cc1 (stereo not drawn)" class_name="class 1"
molecule="Cc1[nH]c2ccccc2c1C(NS(=O)(=O)c1ccccc1)C(Cl)(Cl)Cl (stereo not drawn)" class_name="class 0"
molecule=COc1cc(OC)c(OC)cc1CN1CCN(c2ccccc2F)CC1 class_name="class 0"
molecule="CC1(C)C2CCC1(C)C(OCC(O)CN1CCOCC1)C2 (stereo not drawn)" class_name="class 0"
molecule="Cc1ccc(C2NC(=O)c3c(sc4c3CCCC4)N2)c(O)c1 (stereo not drawn)" class_name="class 1"
molecule=O=C(O)c1ccc(Nc2nc(-c3cccs3)cs2)cc1 class_name="class 0"
molecule=N#CSc1ccc(NC(=O)c2ccc(-n3cnnn3)cc2)cc1 class_name="class 0"
molecule=O=C(CSc1ccc(C(F)(F)F)cc1[N+](=O)[O-])Nc1ccccc1Cl class_name="class 0"
molecule=CC(=O)Nc1nc(C)c(-c2csc(Nc3ccc(S(N)(=O)=O)cc3)n2)s1 class_name="class 1"
molecule=COc1ccc(NC(=O)c2ccc(OC)c([N+](=O)[O-])c2)cc1Cl class_name="class 0"
molecule="CC(C)NC(=O)N1CCCC(c2cccc(C(=O)N3CCN(c4ccccc4)CC3)c2)C1 (stereo not drawn)" class_name="class 1"
molecule="COc1ccc(-c2cc3c(c4c2ccn4C)C2CCC3C2)cn1 (stereo not drawn)" class_name="class 1"
molecule=CCN1C(=Cc2cc[n+](-c3ccccc3)cc2)C=Cc2ccccc21 class_name="class 1"
molecule=COc1ccc(/C=C2\N=C(c3ccc(Cl)c([N+](=O)[O-])c3)OC2=O)cc1OC class_name="class 0"
